Data credit: patent US8173638B2

SYSTEM TESTED: human CB2R (Homo sapiens, UniProt P34972)
Construct: host or cells: CHO cells
Sequence (P34972 whole entry): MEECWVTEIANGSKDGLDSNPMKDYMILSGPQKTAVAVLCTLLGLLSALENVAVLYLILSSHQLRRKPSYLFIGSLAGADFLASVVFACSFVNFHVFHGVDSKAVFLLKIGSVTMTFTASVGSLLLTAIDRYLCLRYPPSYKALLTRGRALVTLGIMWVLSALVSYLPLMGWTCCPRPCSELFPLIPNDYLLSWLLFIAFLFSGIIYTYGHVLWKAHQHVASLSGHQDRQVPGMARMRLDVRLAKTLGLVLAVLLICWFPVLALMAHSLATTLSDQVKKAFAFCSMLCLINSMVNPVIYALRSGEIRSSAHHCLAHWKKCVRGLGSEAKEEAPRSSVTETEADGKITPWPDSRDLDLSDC
ASSAY EXPLANATION: CB2R mediated modulation of cAMP synthesis
Type: cell-based
PARTICULARS: read-out: hCB2 cAMP EC50
Just so you know, the groups by EC50 go like this: low end (below 20 nM), middle (20 nM to below 50 nM), high end (50 nM or more)

> print(dat)
                                   compound    label
1  O=C(Nc1nc(-c2ccccc2)cs1)N1CCCN(C(=O)c2ccc(Cl)cc2)CC1   middle
2  CC(C)(C)c1cc(NC(=O)N2CCCN(C(=O)CN3CCSCC3)CC2)no1  low end
3  N#Cc1ccc(C(=O)N2CCCN(C(=O)Nc3ccc4ccccc4c3)CC2)cc1   middle
4  CC(C)(C)c1cc(NC(=O)N2CCCN(C(=O)c3ccc(Cl)cc3)CC2)no1  low end
5  O=C(Nc1ccc2ccccc2c1)N1CCCN(C(=O)c2ccc(Cl)cc2)CC1   middle

Task item: Dear colleague, I would appreciate it if you could identify the bin for O=C(CC1CCCC1)N1CCCN(C(=O)Nc2ccc(Br)c(C(F)(F)F)c2)CC1 and reply at your convenience.
Reply: low end

Task item: Dear colleague, I would appreciate it if you could identify the bin for O=C(Nc1ccc(SC(F)(F)F)cc1)N1CCCN(C(=O)C2CCOCC2)CC1 and reply at your convenience.
Reply: high end

Task item: Dear colleague, I would appreciate it if you could identify the bin for O=C(Nc1ccc(C(F)(F)F)cc1)N1CCCN(C(=O)C2CCC(F)(F)CC2)CC1 and reply at your convenience.
Reply: high end

Task item: Dear colleague, I would appreciate it if you could identify the bin for CC(C)(C)c1cc(NC(=O)N2CCCN(C(=O)N3CCSCC3)CC2)no1 and reply at your convenience.
Reply: high end

Task item: Dear colleague, I would appreciate it if you could identify the bin for O=C(CC1CCCC1)N1CCCN(C(=O)Nc2ccc3ccccc3c2)CC1 and reply at your convenience.
Reply: high end

###

SYSTEM TESTED: human CB2R (Homo sapiens)
Construct: host or cells: CHO cells
ASSAY EXPLANATION: CB2R mediated modulation of cAMP synthesis
Format: cell-based
PARTICULARS: read-out: hCB2 cAMP EC50
Examples of compounds with documented EC50 follow.
State the answer as a number, implicitly in nM.

Example compounds with recorded EC50:
> print(dat)
                                   compound  recorded.endpoint  recorded.measurement
1  CCC(C)c1ccc(NC(=O)N2CCCN(C(=O)N3CCOCC3)CC2)cc1 (stereo not shown) [Compound 218]               EC50                    20
2  Cc1ccc(C(=O)N2CCCN(C(=O)Nc3ccc(C(C)(C)C)cc3)CC2)cc1 [Compound 122]               EC50                   100
3  COC1CCC(C(=O)N2CCCN(C(=O)Nc3cc(C(C)(C)C)on3)CC2)CC1 (stereo not shown) [Compound 155]               EC50                   110
4  CC(C)(C)c1ccc(NC(=O)N2CCCN(C(=O)c3ccc(C#N)cc3)CC2)cc1 [Compound 112]               EC50                    19
5  CC(C)c1ccc(NC(=O)N2CCCN(C(=O)C3CCCCC3)CC2)cc1 [Compound 34]               EC50                    23
6  CC(C)(C)c1cc(NC(=O)N2CCCN(C(=O)N3CCOCC3)CC2)on1 [Compound 225]               EC50                    54
7  O=C(Nc1ccc2ccccc2c1)N1CCCN(C(=O)C2CCCCC2)CC1 [Compound 68]               EC50                    26
8  CC(C)c1ccc(NC(=O)N2CCCN(C(=O)CCC3CCCCC3)CC2)cc1 [Compound 56]               EC50                    22
9  CC(C)(C)c1ccc(NC(=O)N2CCCN(C(=O)CN3CCSCC3)CC2)cc1 [Compound 121]               EC50                    36

Now consider the entry below.
Task item: If you can, please state the reported EC50 value of O=C(Nc1ccc(C(F)(F)F)cc1)N1CCCN(C(=O)C2CCCCC2)CC1 [Compound 128] .
Reply: 71
